experiment: qHTS RealTime-Glo MT Cell Viability Assay in HEK293 cells - 40 hour (AID 1224874); note: % is set by controls: 0 for no effect and ±100 for the full control effect; nearly all actives have a fitted effect of over 50% in size
measurement.setup: RealTime-Glo luminescence; active compounds read low
Records with an inconclusive call do not appear.

[
  {
    "compound": "COc1cc(C)c(Cc2cnc(N)nc2N)cc1OC",
    "max response (%)": 5.82
  },
  {
    "compound": "CC1=C(C)C(=O)C(C(CCCCCC(=O)O)c2ccccc2)=C(C)C1=O (configuration not stated)",
    "max response (%)": 3.36
  },
  {
    "compound": "CC(=O)CC/C=C(\\C)CC/C=C(\\C)CC/C=C(\\C)CCC=C(C)C",
    "max response (%)": 4.5
  },
  {
    "compound": "CCC(C(=O)O)c1ccc(N2Cc3ccccc3C2=O)cc1 (configuration not stated)",
    "max response (%)": -1.19
  },
  {
    "compound": "O=C(O)c1ccc(O)c(O)c1",
    "max response (%)": -5.14
  },
  {
    "compound": "Clc1cccc(C(c2ccc3nc[nH]c3c2)n2ccnc2)c1 (configuration not stated)",
    "max response (%)": -17.1
  },
  {
    "compound": "CCC(=O)O[C@@H]1C[C@H]2CC[C@]1(C)C2(C)C",
    "max response (%)": -11.1
  },
  {
    "compound": "c1ccc(-c2ccc(-c3ccccc3)cc2)cc1",
    "max response (%)": 0.336
  },
  {
    "compound": "Sc1nc(S)nc(S)n1",
    "max response (%)": 5.08
  },
  {
    "compound": "CC(C)(C)N",
    "max response (%)": 1.55
  },
  {
    "compound": "C1=COCCC1",
    "max response (%)": 1.01
  },
  {
    "compound": "COC(=O)Cc1cccc2ccccc12",
    "max response (%)": -1.93
  },
  {
    "compound": "O=C(C1CCCCC1)N1CC(=O)N2CCCc3ccccc3C2C1 (configuration not stated)",
    "max response (%)": -23.1
  },
  {
    "compound": "CC(O)CN (configuration not stated)",
    "max response (%)": 1.55
  },
  {
    "compound": "CCCCCCCCCCCC(=O)OCC",
    "max response (%)": 3.23
  },
  {
    "compound": "CCN(CC)CC(=O)OCC(=O)[C@@]1(O)CC[C@H]2[C@@H]3CCC4=CC(=O)CC[C@]4(C)[C@H]3[C@@H](O)C[C@@]21C",
    "max response (%)": -1.53
  },
  {
    "compound": "O=C(O)c1ccc2c(c1)nc(C(=O)NC1CCN(C3CC3)CC1)n2Cc1cc(-c2ccc(Cl)s2)on1",
    "max response (%)": -1.71
  },
  {
    "compound": "CC/C=C\\CCO",
    "max response (%)": 15.9
  },
  {
    "compound": "O=C1c2ccccc2C(=O)C1c1ccc2cc(S(=O)(=O)O)cc(S(=O)(=O)O)c2n1",
    "max response (%)": -25.3
  },
  {
    "compound": "O=C(O)c1ccncc1",
    "max response (%)": 9.67
  },
  {
    "compound": "CCCCCCCCCCCCCCCCCCCl",
    "max response (%)": 5.75
  },
  {
    "compound": "CCCc1ccc(OC)cc1",
    "max response (%)": 11.9
  }
]

* * *

target: Aromatase (Homo sapiens)
experiment: qHTS assay to identify aromatase inhibitors (AID 743083); note: nearly all actives have a fitted effect of over 55% in size
measurement.setup: MCF-7 aro ERE, testosterone-driven ERE luciferase, 24 h; series mostly up to 70.3 µM
Records with an inconclusive call do not appear. Calls of active or inactive are those of the source. The call rests on the fitted dose curve; in most records, active means well fitted inhibition curve with a large enough effect in the repeat runs; inconclusive means weak or mixed curves; inactive means no such curve, though single readings can be large or run the other way.
Outcomes: 1.0 (active), 0.0 (inactive)

[
  {
    "smiles.repr": "O=C1CCCN1CCO",
    "class.label": 0.0
  },
  {
    "smiles.repr": "CCCC(=O)OCCC(C)C",
    "class.label": 0.0
  },
  {
    "smiles.repr": "Cc1c(-c2cccnc2)c2ccccc2n1CCCCC(=O)O",
    "class.label": 1.0
  },
  {
    "smiles.repr": "CC(=O)Oc1cccc2c1C(=O)c1c(OC(C)=O)cc(C(=O)O)cc1C2=O",
    "class.label": 0.0
  }
]

* * *

experiment: qHTS assay to identify small molecule agonists of H2AX (AID 1224845); note: % is set by controls: 0 for no effect and ±100 for the full control effect
measurement.setup: CHO-K1 phospho-H2AX Ser139 HTRF, 3 h; series mostly up to 154 µM
Excerpt: National Center for Advancing Translational Sciences [NCATS] NIH Chemical Genomics Center [NCGC] U.S. Environmental Protection Agency [EPA] National Institutes of Environmental Health Sciences [NIEHS] National Toxicology Program [NTP] U.S. Food and Drug Administration [FDA] HTRF phospho-H2AX (Ser139) assay (Cisbio Bioassays, US) enables the quantitative detection of the histone variant H2AX when phosphorylated on serine 139. […]
Results filed as inconclusive are left out. The source made the active and inactive calls. Calls follow the shape of the dose curve; as a rule, active = well fitted activation curve with a large enough effect in the signal ratio in the repeat runs (not every such curve was filed as active); inconclusive = weak or mixed curves; inactive = flat fitted curve, though single readings scatter; the % refers to the signal ratio.

[
  {
    "smiles.repr": "C=C(C)C(=O)OCCCCCCCCCCOC(=O)C(=C)C",
    "activation (H2AX phosphorylation)": "inactive"
  },
  {
    "smiles.repr": "CCCN(C1CCN(C(=O)C2CCNCC2)CC1)[C@@H]1CCc2ccc(OC)cc2C1",
    "activation (H2AX phosphorylation)": "inactive"
  },
  {
    "smiles.repr": "CO[C@@H]1[C@@H](O[C@@H]2O[C@H](C)[C@@H](O[C@H]3C[C@@](C)(O)[C@@H](O)[C@H](C)O3)[C@H](N(C)C)[C@H]2O)[C@@H](CC=O)C[C@@H](C)[C@@H](O[C@@H]2CC[C@H](N(C)C)[C@@H](C)O2)/C=C/C=C/C[C@@H](C)OC(=O)C[C@H]1OC(C)=O",
    "activation (H2AX phosphorylation)": "inactive"
  }
]

* * *

experiment: qHTS assay to identify small molecule antagonists of the thyroid receptor (TR) signaling pathway (AID 743065); note: nearly all actives have a fitted effect of over 55% in size
measurement.setup: GH3.TRE-Luc, T3-stimulated luciferase inhibition, 23.5 h; series mostly up to 70.3 µM
Results filed as inconclusive are left out. Activity calls are given as the source filed them. Calls follow the shape of the dose curve; as a rule, active = well fitted inhibition curve with a large enough effect in the repeat runs; inconclusive = weak or mixed curves; inactive = no such curve, though single readings can be large or run the other way.
Classes used: active, inactive

[
  {
    "compound": "NC(=O)c1ccccc1",
    "class.label": "inactive"
  },
  {
    "compound": "O=C1c2ccccc2C(=O)C1c1ccc2ccccc2n1",
    "class.label": "inactive"
  },
  {
    "compound": "CCCCOC(=O)CC#N",
    "class.label": "inactive"
  },
  {
    "compound": "COC(=O)c1cc(Cl)ccc1[N+](=O)[O-]",
    "class.label": "inactive"
  },
  {
    "compound": "C[C@H](CN1CCCC1)C(=O)c1ccc(C(F)(F)F)cc1",
    "class.label": "active"
  },
  {
    "compound": "CCC(C)C1N=C(C)C(C)S1 (centres undefined)",
    "class.label": "inactive"
  },
  {
    "compound": "CCc1ccc2c(c1)C(=O)c1ccccc1C2=O",
    "class.label": "inactive"
  },
  {
    "compound": "C=CC(C)(O)CC/C=C(/C)CCC=C(C)C (centres undefined)",
    "class.label": "inactive"
  },
  {
    "compound": "CCCCCCCCOCCCN",
    "class.label": "active"
  },
  {
    "compound": "CCCCC(CC)COCCC#N (centres undefined)",
    "class.label": "inactive"
  },
  {
    "compound": "CC(C(=O)O)c1ccc2c(c1)Cc1cccnc1O2 (centres undefined)",
    "class.label": "inactive"
  },
  {
    "compound": "CC/C=C/CCO",
    "class.label": "inactive"
  },
  {
    "compound": "Cc1ccc(NC(=O)c2ccc(CN3CCN(C)CC3)cc2)cc1Nc1nccc(-c2cccnc2)n1",
    "class.label": "active"
  },
  {
    "compound": "CC(C)=CCC[C@H](C)CCO",
    "class.label": "inactive"
  }
]

* * *

experiment: qHTS assay to test for compound auto fluorescence at 590 nm (red) in HEK293 cells (AID 720679); note: % is set by controls: 0 for no effect and ±100 for the full control effect
measurement.setup: red autofluorescence 540/590 nm; series mostly up to 91.3 µM
Active and inactive are the calls of the source. The call rests on the fitted dose curve; in most records, active means well fitted curve in the direction sought with a large enough effect in the repeat runs; inconclusive means weak or mixed curves; inactive means flat fitted curve, though single readings scatter.
property: fluorescence, % of fluorescent control

[
  {
    "compound": "Clc1cccc(C(c2ccc3nc[nH]c3c2)n2ccnc2)c1 (centres undefined)",
    "value": "inactive"
  },
  {
    "compound": "CCCCCCCCC(=O)OCC(C)OC(=O)CCCCCCCC (centres undefined)",
    "value": "inactive"
  },
  {
    "compound": "COc1ccc(/C=C/c2cc(OC)cc(=O)o2)cc1",
    "value": "inactive"
  },
  {
    "compound": "CC(C)Cc1nccs1",
    "value": "inactive"
  },
  {
    "compound": "CCOc1ccc2c(c1)C(C)CC(C)(C)N2 (centres undefined)",
    "value": "inactive"
  },
  {
    "compound": "O=C(OCCCCCOC(=O)c1ccccc1)c1ccccc1",
    "value": "inactive"
  },
  {
    "compound": "CCCCCCCCOCCCN",
    "value": "inactive"
  },
  {
    "compound": "Nc1nc(Cl)nc2c1ncn2[C@H]1C[C@H](O)[C@@H](CO)O1",
    "value": "inactive"
  },
  {
    "compound": "C1=COCCC1",
    "value": "inactive"
  },
  {
    "compound": "C=CC(=O)OCCCCCCCCCC",
    "value": "inactive"
  },
  {
    "compound": "c1ccc(CCNc2nc(-c3ccccc3)cs2)cc1",
    "value": "inactive"
  },
  {
    "compound": "CCC1=C(C)CN(C(=O)NCCc2ccc(S(=O)(=O)NC(=O)NC3CCC(C)CC3)cc2)C1=O (centres undefined)",
    "value": "inactive"
  },
  {
    "compound": "[O-][n+]1ccc(Cl)cc1",
    "value": "inactive"
  },
  {
    "compound": "O=C(O)c1ccncc1",
    "value": "inactive"
  }
]
